From: paper PMC5540273

# Test system: EPHA7
# CONDITION_SUMMARY: concentration: 1 μM, replicates: in singlicate; n = 1;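 also: KINOMEscan kinase panel screen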
Each item that follows carries a reported %Inh.
OUTCOME_MEASURE: %Inh

test_smiles=O=c1[nH]cc(-c2ccc(N3CCOCC3)cc2)c2sc(-c3cn[nH]c3)cc12 system_under_test=EPHA7 outcome_measure=%Inh obs_value=9%
test_smiles=Cc1ccc(C(=O)N2CC[C@@H](O)C2)cc1-n1c(C)cc(OCc2ccc(F)cc2F)c(Br)c1=O system_under_test=EPHA7 outcome_measure=%Inh obs_value=0%
test_smiles=O=C(O)C(F)(F)F.O=C(O)C(F)(F)F.O=c1[nH]ccc2nc(N[C@@H]3CCCNC3)nc(Nc3ccc(S(=O)(=O)N4CCOCC4)cc3)c12 system_under_test=EPHA7 outcome_measure=%Inh obs_value=58%
test_smiles=Cl.c1ccc(-c2ccc3c(Nc4ccc5[nH]ncc5c4)ccnc3c2)nc1 system_under_test=EPHA7 outcome_measure=%Inh obs_value=0%
test_smiles=Cn1cc(-c2ccc3c(c2)CCN3C(=O)Cc2cccc(Cl)c2)c2c(N)ncnc21 system_under_test=EPHA7 outcome_measure=%Inh obs_value=13%
test_smiles=Nc1n[nH]c2cnc(-c3ccccc3)cc12 system_under_test=EPHA7 outcome_measure=%Inh obs_value=65%
test_smiles=CCc1ccc(-c2ccc3c(c2)-c2c(cnn2C)S(=O)(=O)N3C)cc1 system_under_test=EPHA7 outcome_measure=%Inh obs_value=0%
test_smiles=CN(c1ccc(NC(=O)Nc2cc(C(F)(F)F)ccc2F)cc1)c1ccnc(Nc2ccc(S(N)(=O)=O)cc2)n1 system_under_test=EPHA7 outcome_measure=%Inh obs_value=97.9%

* * *

# System: PIP5K2B
# CONDITION_SUMMARY: concentration: 1 μM, replicates: in singlicate; n = 1
Assign criterion met to entries whose %Inh meets or exceeds 8%; assign criterion not met to the rest.

compound="COc1cc(Nc2ncc3c(C)nc(-c4cc5ccccc5[nH]4)n3n2)cc(OC)c1OC [GW869516]" system_under_test=PIP5K2B class_assignment="criterion met"
compound="C[C@@H]1CC[C@@H](C(=O)Nc2ccccc2)CN1c1cc(-c2ccc3c(N)n[nH]c3c2)nc(N)n1 [GSK2286062]" system_under_test=PIP5K2B class_assignment="criterion not met"
compound="CCn1c(-c2nonc2N)nc2c(C#CC(C)(C)O)nc(OC[C@H](N)c3ccccc3)cc21 [GSK943949]" system_under_test=PIP5K2B class_assignment="criterion not met"
compound="Cl.c1ccc(-c2ccc3c(Nc4ccc5[nH]ncc5c4)ccnc3c2)nc1 [GW440137]" system_under_test=PIP5K2B class_assignment="criterion not met"
compound=COc1cc2c(cc1OCCN1CCNCC1)ncc1c3ccc(C#N)cc3[nH]c21 system_under_test=PIP5K2B class_assignment="criterion met"
compound="O=C(Nc1cccc(-c2nn3ccccc3c2-c2ccnc(Nc3cccc(C(F)(F)F)c3)n2)c1)c1c(F)cccc1F [GSK292658]" system_under_test=PIP5K2B class_assignment="criterion not met"
compound=CCc1ccc(-c2ccc3c(c2)-c2c(cnn2C)S(=O)(=O)N3C)cc1 system_under_test=PIP5K2B class_assignment="criterion not met"
compound="Fc1ccc(-c2ncn(C3CCNCC3)c2-c2ccnc(Oc3ccc(-c4ccccc4)cc3)n2)cc1 [SB-245391]" system_under_test=PIP5K2B class_assignment="criterion not met"
compound="COc1cccc(NC(=O)NC2CCN(c3ccnc(Nc4cc(OC)c(OC)c(OC)c4)n3)C2)c1 (centres unmarked) [GSK1379763]" system_under_test=PIP5K2B class_assignment="criterion not met"
compound="CCCCc1nn2ncccc2c1-c1ccnc(Nc2ccc(N3CCN(C)CC3)cc2)n1 [GW684941]" system_under_test=PIP5K2B class_assignment="criterion not met"
compound="COc1cc(Nc2nccc(-c3c(-c4cccc(NC(=O)c5c(F)cccc5F)c4)nn4ccccc34)n2)cc(OC)c1OC [GSK323521]" system_under_test=PIP5K2B class_assignment="criterion met"
compound="FC(F)(F)c1ccc(/C=C/c2cncnc2Nc2ccc3[nH]c(Cc4ccccc4)nc3c2)cc1 [GW709199]" system_under_test=PIP5K2B class_assignment="criterion not met"
compound=CC(=O)Nc1nc2cnc(Nc3cc(NC(=O)c4cccc(C5(C#N)CC5)c4Cl)ccc3C)nc2s1 system_under_test=PIP5K2B class_assignment="criterion met"
